target: human DGKα (Homo sapiens); construct: TVMV protease cleavage site (C); Hexa-His (C); made in house; host or cells: Sf9 insect cells (baculovirus, Bac-to-Bac); test: DGKα LIPGLO assay (extruded liposome substrate), in vitro DGK inhibition; type: biochemical; conditions: DGKα liposome (LIPGLO) assay; read-out: DGKa LIPGLO IC50
measured_endpoint: IC50 (nM)

Some compounds with known IC50 results, for comparison:
C[C@@H]1CN(c2c(C#N)c(=O)n(C)c3ccc(C#N)nc23)CCN1C(c1ccc(F)cc1)c1cocn1 (stereo partly drawn) [Example 1022]; 2900
C[C@@H]1CN(c2cc(=O)n(C)c3ccc(C#N)nc23)[C@@H](C)CN1C(c1ccc(F)cc1)c1ncno1 (stereo partly drawn); 2600
Cc1cc(C(c2ccc(F)cc2)N2C[C@H](C)N(c3cc(=O)n(C)c4ccc(C#N)nc34)C[C@H]2C)no1 (single isomer, unassigned) [Example 734]; 180
C[C@@H]1CN(c2c(C#N)c(=O)n(C)c3ccc(C#N)nc23)[C@@H](C)CN1C(c1ccccc1)c1cc(F)cc(F)c1 (single isomer, unassigned) [Example 813]; 85000

a: CC(c1ccc(Br)cc1)N1C[C@H](C)N(c2c(C#N)c(=O)n(C)c3ccc(C#N)nc23)C[C@H]1C (single isomer, unassigned) [Example 790]
b: C[C@@H]1CN(c2cc(=O)n(C)c3ccc(C#N)nc23)[C@@H](C)CN1C(c1ccc(Br)cc1)c1nc(C2CC2)no1 (stereo partly drawn) [Example 760]
Prompt: Select one: a or b . Criterion: greater recorded IC50. Selection: enter the item's label.
Completion: a
(a: 610 nM, b: 70 nM)

###

target: human DGKα (Homo sapiens, UniProt P23743); construct: TVMV protease cleavage site (C); Hexa-His (C); made in house; host or cells: Sf9 insect cells (baculovirus, Bac-to-Bac); test: DGKα LIPGLO assay (extruded liposome substrate), in vitro DGK inhibition; assay type: biochemical; conditions: liposome (LIPGLO) assay; read-out: DGKa LIPGLO IC50
Sequence (P23743 with tags, fused parts or gaps): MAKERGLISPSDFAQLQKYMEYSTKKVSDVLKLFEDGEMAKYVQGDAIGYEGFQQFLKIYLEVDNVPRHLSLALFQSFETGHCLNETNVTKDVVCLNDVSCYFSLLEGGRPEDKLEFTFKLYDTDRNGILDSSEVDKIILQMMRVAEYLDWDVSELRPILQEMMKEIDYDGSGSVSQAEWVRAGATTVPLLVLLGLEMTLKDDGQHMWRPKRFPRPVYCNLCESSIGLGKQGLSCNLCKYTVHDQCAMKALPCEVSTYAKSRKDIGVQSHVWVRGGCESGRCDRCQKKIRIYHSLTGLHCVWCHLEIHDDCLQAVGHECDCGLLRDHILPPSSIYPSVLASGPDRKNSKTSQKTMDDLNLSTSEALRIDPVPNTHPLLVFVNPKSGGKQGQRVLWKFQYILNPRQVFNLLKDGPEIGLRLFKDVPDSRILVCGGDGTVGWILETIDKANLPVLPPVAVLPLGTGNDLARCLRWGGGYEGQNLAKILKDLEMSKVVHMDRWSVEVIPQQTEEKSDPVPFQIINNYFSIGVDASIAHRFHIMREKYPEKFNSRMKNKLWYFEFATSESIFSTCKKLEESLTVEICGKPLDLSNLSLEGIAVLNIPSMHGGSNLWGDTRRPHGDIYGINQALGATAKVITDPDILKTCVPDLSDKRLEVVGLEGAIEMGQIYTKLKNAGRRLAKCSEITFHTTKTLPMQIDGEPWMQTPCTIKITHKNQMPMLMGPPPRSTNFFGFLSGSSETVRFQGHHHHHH
pIC50: −log10 of the molar value.
measured_endpoint: pIC50

Please review the entries below; each comes with its answer.
C[C@@H]1CN(c2c(F)c(=O)n(C)c3ccc(C#N)nc23)[C@@H](C)CN1C(c1ccc(Cl)cc1)c1ccc(OC(F)(F)F)cc1 (stereo partly drawn) [Example 323]; 5.68
C[C@@H]1CN(c2cc(=O)n(C)c3ccc(C#N)nc23)[C@@H](C)CN1C(c1ccc(F)cc1)C(F)(F)CO (single isomer, unassigned) [Example 1310]; 5.21

a: CC[C@H]1CN(C(c2ccc(F)cc2)c2cccc(C(F)(F)F)n2)[C@H](C)CN1c1cc(=O)n(C)c2ccc(C#N)nc12 (single isomer, unassigned) [Example 1133]
b: CC(c1cc(F)cc(OC(F)(F)F)c1)N1C[C@H](C)N(c2cc(=O)n(C)c3ccc(C#N)nc23)C[C@H]1C (single isomer, unassigned) [Example 1210]
c: Cn1c(=O)cc(N2CCN(C(c3ccc(F)cc3)c3ccc(F)cc3)C(C(N)=O)C2)c2nc(C#N)ccc21 (single isomer, unassigned) [Example 42]
d: Cc1ccc(C(c2ccc(Cl)cc2)N2C[C@H](C)N(c3cc(=O)n(C)c4ccc(C#N)nc34)C[C@H]2C)nc1 (single isomer, unassigned) [Example 214]
Prompt: Sort by pIC50, descending. Answer by listing the labels in the order asked for.
Completion: d, a, b, c
